Molecular target: human PTH1 receptor (Homo sapiens, UniProt Q03431)
Sequence (Q03431 27-593): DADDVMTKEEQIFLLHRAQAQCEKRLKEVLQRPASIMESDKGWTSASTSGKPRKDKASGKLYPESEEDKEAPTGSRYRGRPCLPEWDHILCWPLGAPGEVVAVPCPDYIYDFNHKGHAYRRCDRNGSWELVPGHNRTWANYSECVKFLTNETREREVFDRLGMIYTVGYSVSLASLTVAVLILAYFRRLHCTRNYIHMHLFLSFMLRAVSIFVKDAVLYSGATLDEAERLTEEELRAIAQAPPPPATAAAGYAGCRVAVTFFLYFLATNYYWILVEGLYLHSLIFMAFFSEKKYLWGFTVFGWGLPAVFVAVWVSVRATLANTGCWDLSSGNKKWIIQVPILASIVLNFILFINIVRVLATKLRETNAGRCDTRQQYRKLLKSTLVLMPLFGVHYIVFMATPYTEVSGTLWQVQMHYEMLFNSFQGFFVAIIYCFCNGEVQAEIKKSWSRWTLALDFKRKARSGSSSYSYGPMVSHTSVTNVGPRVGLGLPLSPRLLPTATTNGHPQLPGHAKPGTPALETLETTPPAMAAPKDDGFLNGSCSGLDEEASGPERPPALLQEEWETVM
Assay: In vitro cAMP signal activity in HKRK-B7 cells (LLC-PK1 cells overexpressing the human PTH1 receptor)
Type: cell-based
Conditions: HKRK-B7 cells; compound at 1×10^−3 M; cAMP produced as percentage of that produced by hPTH(1-34) at 100 nM
Output: class label from cAMP production activity (%). Mapping: class 0 = under 50%, class 1 = from 50% up to 90%, class 2 = 90% and over

- MOLECULE: "Cc1cc(NC[C@H](O)CO)ccc1CCS(=O)(=O)N1CCC2(CC1)N=C(c1ccc(C(F)(F)F)cc1)NC2=O"
  LABEL_CLASS: "class 1"
- MOLECULE: "O=C1NC(C2CCCCC2)=NC12CCN(S(=O)(=O)c1cccs1)CC2"
  LABEL_CLASS: "class 1"
- MOLECULE: "CCCCC1CCC(NC2=NC3(CCN(S(=O)(=O)CCc4ccc(C(=O)N(C)C)cc4C)CC3)C(=O)N2)CC1 (centres unmarked)"
  LABEL_CLASS: "class 1"
- MOLECULE: "Cc1cc(C(=O)N2CCC(O)(CF)CC2)cc(C)c1CCS(=O)(=O)N1CCC2(CC1)N=C(c1ccc(C(F)(F)F)c(Cl)c1)NC2=O"
  LABEL_CLASS: "class 2"
- MOLECULE: "Cc1cc(CNC(=O)OC(C)(C)C)ccc1CCS(=O)(=O)N1CCC2(CC1)N=C(C1CCOCC1)NC2=O"
  LABEL_CLASS: "class 0"
- MOLECULE: "CC(=O)N(CCOCCO)c1ccc(CCS(=O)(=O)N2CCC3(CC2)N=C(C2CCC(CCC(F)(F)F)CC2)NC3=O)c(C)c1 (centres unmarked)"
  LABEL_CLASS: "class 2"
- MOLECULE: "Cc1cc(C(=O)N2CCC(C)(O)CC2)cc(C)c1CCS(=O)(=O)N1CCC2(CC1)N=C(c1ccc(OC(F)(F)F)cc1)NC2=O"
  LABEL_CLASS: "class 2"
- MOLECULE: "CC(C)(C)C1=NC2(CCN(S(=O)(=O)c3cccc(Cl)c3)CC2)C(=O)N1"
  LABEL_CLASS: "class 0"
- MOLECULE: "Cc1cc(C(=O)N2CCC(C)(O)CC2)cc(C)c1/C=C/S(=O)(=O)N1CCC2(CC1)N=C(c1ccc3cc[nH]c3c1)NC2=O"
  LABEL_CLASS: "class 1"
- MOLECULE: "Cc1cc(CC(N)=O)ccc1CCS(=O)(=O)N1CCC2(CC1)N=C(C1CCC(C)CC1)NC2=O (centres unmarked)"
  LABEL_CLASS: "class 1"
- MOLECULE: "Cc1cc2ccc1CCS(=O)(=O)N1CCC3(CC1)N=C(NC3=O)c1cc(cc(C(F)(F)F)c1)OCC[C@H](O)[C@H](O)COCCN(C)C2=O"
  LABEL_CLASS: "class 0"
- MOLECULE: "Cc1cc(CN2C(=O)CCC2=O)cc(C)c1CCS(=O)(=O)N1CCC2(CC1)N=C(C1CCC(C)CC1)NC2=O (centres unmarked)"
  LABEL_CLASS: "class 0"
- MOLECULE: "CC(=O)Nc1ccc(CCS(=O)(=O)N2CCC3(CC2)N=C([C@H]2CC[C@@H](CCF)CC2)NC3=O)c(C)c1"
  LABEL_CLASS: "class 1"
